- target-of-assay: NMDA receptors
- experiment-description: (3H)CPP binding displacement in rat brain homogenate
- condition: (3H)CPP 8 nM, rat brain homogenate, 23° C.
metric: pIC50
For clarity, pIC50 is expressed as the negative log10 of concentration in mol/L.

# molecule, target-of-assay, recorded-value
rows = [
    ("C=CCN(CC(=O)O)c1c(N)c(=O)c1=O [Example 3]", "NMDA receptors", 4.98),
    ("O=c1c2c(c1=O)N(Cc1nnn[nH]1)CCCN2 [Example 11]", "NMDA receptors", 7.42),
    ("Nc1c(NCCCC(=O)O)c(=O)c1=O [1(c)]", "NMDA receptors", 4.99),
    ("CCOC(=O)CNc1c(N)c(=O)c1=O [1(a)]", "NMDA receptors", 3.72),
    ("O=c1c2c(c1=O)N(CCP(=O)(O)O)CCN2 [Example 7]", "NMDA receptors", 7.04),
]

Data request: I'd like to know its pIC50. The molecule in question is CN(CCP(=O)(O)O)c1c(N)c(=O)c1=O [Example 6]
Data returned: 6.00

Data request: Looking for the measured pIC50 of O=C(O)CN1CCCNc2c1c(=O)c2=O [Example 10] , can you help?
Data returned: 6.26

Data request: What pIC50 value was documented for this molecule, Nc1c(NCCP(=O)(O)O)c(=O)c1=O [Example 4] ?
Data returned: 6.33

Data request: Find the recorded pIC50 belonging to Nc1c(NCCn2oc(=O)[nH]c2=O)c(=O)c1=O [Example 2] and report it.
Data returned: 5.28

====

The entries below come with measured IC50 values attached.
- target-of-assay: NMDA receptors
- experiment-description: (3H)CPP binding displacement in rat brain homogenate
- condition: (3H)CPP 8 nM, rat brain homogenate, 23° C.

Reference set, count: 5
# compound, IC50
rows = [
    ("O=c1c2c(c1=O)N(C/C=C/P(=O)(O)O)CCCN2", "> 10000 nM"),
    ("CN(CP(=O)(O)O)c1c(N)c(=O)c1=O", "> 10000 nM"),
    ("O=C(O)CCN1CCCNc2c1c(=O)c2=O", "340 nM"),
    ("O=c1c2c(c1=O)N(CCP(=O)(O)O)CCCCN2", "41 nM"),
    ("CC1(C)CNc2c(c(=O)c2=O)N(CCP(=O)(O)O)C1", "280 nM"),
]

Data request: Item `C=C(C)CN(CC(=O)O)c1c(N)c(=O)c1=O` has what recorded IC50?
Data returned: 30000 nM

Data request: So what's the measured IC50 for this one? `Nc1c(NCP(=O)(O)O)c(=O)c1=O`
Data returned: > 10000 nM

====

- target-of-assay: NMDA receptors
- experiment-description: (3H)CPP binding displacement in rat brain homogenate
- condition: (3H)CPP 8 nM, rat brain homogenate, 23° C.
Here the recorded IC50 is given for each entry.
API: value field is a number in µM; no unit string.

Study these solved cases before continuing.
# compound, unit-annotation, recorded-value
data = [
    ("O=c1c2c(c1=O)N(CCP(=O)(O)O)CCCN2", "µM", 0.03),
    ("CNc1c(NCCC(=O)O)c(=O)c1=O", "µM", 19.6),
    ("Nc1c(NCCCP(=O)(O)O)c(=O)c1=O", "µM", 2.59),
]

Data request: // query IC50 value for entry O=c1c2c(c1=O)N(CCP(=O)(O)O)CC(O)CN2 (stereo not drawn)
Data returned: 0.019
